These data points were gathered from patent US20140170239A1.

molecular target: T1, biotinylated p53β peptide (human, also: biotinylated, site not given here); assay: peptide-binding assay: peptide spots on membrane, biotinylated p53β peptide, streptavidin-HRP;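 also: Membrane-bound synthesized peptide spots exposed to the biotinylated p53 aggregation-prone peptide, bound material revealed via streptavidin-HRP and chemiluminescence, spot signal reflecting binding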
T1 construct: also called biotinylated p53-aggregating peptide
T1 peptide: ILTIITL
Where no end group is shown, it is not given here.
So I've got a bunch of binders here, and I need their Binding intensity (normalized) values.
The reply should contain only the number, in normalized.

[in] I have this binder here, ILTSGTL (spot-synthesized on membrane; also called position Nr 36) [RTEL1_HUMAN peptide ILTSGTL] , and I need its recorded Binding intensity (normalized).
[out] 17.3

[in] I have this binder here, ILTFKTL (spot-synthesized on membrane; also called position Nr 12) [DYH3_HUMAN peptide ILTFKTL] , and I need its recorded Binding intensity (normalized).
[out] 6.2

[in] I have this binder here, ILTISSL (spot-synthesized on membrane; also called position Nr 22) [KV122_HUMAN peptide ILTISSL] , and I need its recorded Binding intensity (normalized).
[out] 23.8

[in] I have this binder here, IEVIITL (spot-synthesized on membrane; also called position Nr 32) [CXL11_HUMAN peptide IEVIITL] , and I need its recorded Binding intensity (normalized).
[out] 8.54

[in] I have this binder here, ILGKITL (spot-synthesized on membrane; also called position Nr 17) [MP2K4_HUMAN peptide ILGKITL] , and I need its recorded Binding intensity (normalized).
[out] 16.9

[in] I have this binder here, ILSIDTL (spot-synthesized on membrane; also called position Nr 54) [SPEF2_HUMAN peptide ILSIDTL] , and I need its recorded Binding intensity (normalized).
[out] 79.6

[in] I have this binder here, ILIIITL (spot-synthesized on membrane; also called p73β; position Nr 35) [P73_HUMAN peptide ILIIITL] , and I need its recorded Binding intensity (normalized).
[out] 99

[in] I have this binder here, LLTIINL (spot-synthesized on membrane; also called position Nr 6) [EPMIP_HUMAN peptide LLTIINL] , and I need its recorded Binding intensity (normalized).
[out] 1.55

[in] I have this binder here, ILTIGTG (spot-synthesized on membrane; also called methionine synthase (METH) segment; position Nr 38) [METH_HUMAN peptide ILTIGTG] , and I need its recorded Binding intensity (normalized).
[out] 49.2

[in] I have this binder here, ILTEIHL (spot-synthesized on membrane; also called position Nr 34) [RFC5_HUMAN peptide ILTEIHL] , and I need its recorded Binding intensity (normalized).
[out] 12.9

[in] I have this binder here, LLTIETL (spot-synthesized on membrane; also called position Nr 24) [CYTIP_HUMAN peptide LLTIETL] , and I need its recorded Binding intensity (normalized).
[out] 26.6

[in] I have this binder here, LLTIILL (spot-synthesized on membrane; also called position Nr 9) [PGTA_HUMAN peptide LLTIILL] , and I need its recorded Binding intensity (normalized).
[out] 3.95
